# EXPERIMENT_NOTES: chemical genetic growth profiling, strain panel (AID 1159580);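 also: tested at 20 µM; growth read once vehicle control cultures reached saturation at 30 °C; lower values mean less growth of the strain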
# RUN_CONDITIONS: S. cerevisiae deletion strains, growth OD, locus YNL020C, strain ARK1, stronger effect = lower value
The campaign covered roughly 5,500 compounds. About 2,000 (36%) were called active. Inconclusive results (about 18%) are left out. The list shows a part of the results.
Exam item: assign YES to entries whose normalized growth is below 0.9 and NO to entries at or above 0.9. Note that a value of exactly 0.9 receives NO.

Completed entries (count: 6):
COMPOUND	LABEL_VALUE
Clc1cccc(Nc2ncc(-c3ccc4c(c3)OCCCO4)s2)c1	YES
Cc1c(S(=O)(=O)Nc2cccc([N+](=O)[O-])c2)sc2ccc(Cl)cc12	NO
Nc1ccccc1C(=O)Nc1cc(C(F)(F)F)cc(C(F)(F)F)c1	NO
Clc1ccc(-c2cnc(Nc3cc(Cl)cc(Cl)c3)s2)cc1	YES
FC(F)(F)c1cc(NC(=S)SCCSC(=S)Nc2cc(C(F)(F)F)cc(C(F)(F)F)c2)cc(C(F)(F)F)c1	NO
Cc1ccc(NC(=S)C(C#N)C(=O)N2CCOCC2)c(C)c1 (stereo not given)	NO

Exam item: Lab log: compare recorded normalized growth with 0.9; is it strictly lower for CN(C)c1ccc(/C=C/c2ccc3ccccc3[n+]2C)cc1 ?
Marked response: YES

Exam item: Lab log: compare recorded normalized growth with 0.9; is it strictly lower for Cc1noc(C)c1S(=O)(=O)Nc1csc(C(F)(F)F)c1-c1ccccc1 ?
Marked response: NO
